Hello, the source for this data is PubChem BioAssay, in case you need it.

test: E. coli acrAB mutant growth effects, primary screen, E. coli filamentation inducers, strain DRC39, OD650, 48 h (AID 1179);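 further: screen aims at cell division blockers that make cells filament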; details: E. coli DRC39 delta-acrAB growth, higher = more signal, called active from +8 up or from −8 down
Label T when z-score is at or above 0.2; otherwise label F.

**Query** For this compound, is measured z-score 0.2 or higher? `O=C1N(CCS(=O)(=O)c2ccccc2)Cc2ccccc2[C@H]2OC(c3ccc(OCCCO)cc3)=N[C@@]12CCS(=O)(=O)c1ccccc1`
**Result** T

**Query** For this compound, is measured z-score 0.2 or higher? `COCCOC(=O)N1C(=O)[C@@]2(c3ccccc31)[C@H](C(=O)Nc1nc3ccccc3s1)[C@H]1C(=O)O[C@H](c3ccccc3)[C@H](c3ccccc3)N1[C@@H]2c1ccc(OCCO)cc1`
**Result** F

**Query** For this compound, is measured z-score 0.2 or higher? `[N-]=[N+]=NCc1ccccc1C[C@]1(C(=O)NCCN2CCOCC2)N=C(c2ccc(OCCCO)cc2)O[C@H]1c1ccccc1N=[N+]=[N-]`
**Result** T

**Query** For this compound, is measured z-score 0.2 or higher? C=CCC(OC(C)=O)[C@@H]1[C@@H](N(Cc2cccc3ccccc23)C(=O)c2ccc(C)cc2)c2cc(OCCCO)ccc2N1C(=O)Cc1ccc(OC)cc1 (stereo partly drawn)
**Result** T

**Query** For this compound, is measured z-score 0.2 or higher? `CCOC(=O)C1=CC[C@@H](c2ccccc2Cl)N(S(=O)(=O)c2ccc(C)cc2)C1`
**Result** T

**Query** For this compound, is measured z-score 0.2 or higher? `COc1ccc(C#Cc2ccc3c(c2)[C@]2(C(=O)N3)[C@H](c3ccc(O)cc3)N3[C@H](c4ccccc4)[C@H](c4ccccc4)OC(=O)[C@H]3[C@@H]2C(=O)NC[C@H](O)c2ccccc2)cc1`
**Result** F

**Query** For this compound, is measured z-score 0.2 or higher? C=CC[C@@]1(C(=O)NCC(O)CO)N=C(c2ccc(OCCCO)cc2)O[C@@H]1c1ccccc1N=[N+]=[N-] (stereo partly drawn)
**Result** T

**Query** For this compound, is measured z-score 0.2 or higher? COC(=O)c1ccc(C(O)C2C=CC3C(=O)N(C)C(=O)C3N2NC(=O)OC(C)(C)C)o1 (stereo not drawn)
**Result** F

**Query** For this compound, is measured z-score 0.2 or higher? `COC(=O)C[C@@H]1C[C@H](C)[C@]2(O1)C(=O)N(Cc1ccccc1)c1ccc(NC(C)=O)cc12`
**Result** F

**Query** For this compound, is measured z-score 0.2 or higher? `C=C(COC)/C(=C/C[C@H](OC(=O)c1ccncc1)c1cccc(OCCO)c1)c1cc(C(=O)OC)ccc1OC`
**Result** T

**Query** For this compound, is measured z-score 0.2 or higher? `COCCOC(=O)N1C(=O)[C@@]2(c3cc(C#CC4=CCCCC4)ccc31)[C@H](C(=O)NC[C@H](O)c1ccccc1)[C@H]1C(=O)O[C@H](c3ccccc3)[C@H](c3ccccc3)N1[C@@H]2c1ccc(O)cc1`
**Result** F

**Query** For this compound, is measured z-score 0.2 or higher? `COCCOC(=O)N1C(=O)[C@@]2(c3cc(C#CCNC(N)=O)ccc31)[C@H](c1ccccc1OCCO)N1[C@H](c3ccccc3)[C@H](c3ccccc3)OC(=O)[C@H]1[C@@H]2C(N)=O`
**Result** F

**Query** For this compound, is measured z-score 0.2 or higher? `C=CCNC(=O)[C@@H]1[C@H]2C(=O)O[C@H](c3ccccc3)[C@H](c3ccccc3)N2[C@H](c2ccccc2OCCO)[C@@]12C(=O)Nc1ccc(C#CC3=CCCCC3)cc12`
**Result** F

====

assay: basal RPMI8226 viability, no added stimulus, profiling panel, cell-based, calcein-AM fluorescence, 48 h, PK04 Diversity Set (AID 1166); conditions: RPMI8226 myeloma viability, higher = more signal;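 further: cells grown under basal conditions without added stimulus; test concentration not given here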
value-kind: z-score
// return a plain number; no unit text

// z-score lookup, compound = `O=c1cccc(CCc2ccccc2)o1` , result: -0.709

// z-score lookup, compound = `COCCCNC(=O)[C@@]1(CCC(=O)OC(C)(C)C)N=C(c2ccc(OCCCO)cc2)O[C@H]1c1ccccc1CN=[N+]=[N-]` , result: -0.853

// z-score lookup, compound = `Cc1ccc(S[C@]2(C(=O)O)CC(=O)N(C3Cc4ccccc4C3)[C@@H]2c2ccc(CO)cc2I)cc1` , result: -2.88

// z-score lookup, compound = `CCCN1C(=O)[C@@]2(CCC(=O)OC(C)(C)C)N=C(c3ccc(OCCCO)cc3)O[C@H]2c2ccccc21` , result: -4.43

// z-score lookup, compound = O=C1C2C=CC(C(O)c3ccc(F)cc3)N(Nc3ccccc3)C2C(=O)N1c1ccccc1 (stereo not given) , result: -0.149

====

Give measured composite z-score for each item. Keep answers brief.
molecular target: Torsin-1A (Homo sapiens) (UniProt O14656); experiment: small-molecule binders of mutant TOR1A in lysate, primary screen, cell lysate, small-molecule microarray, COS7 lysate, 635/667 nm fluorescence (AID 1150); details: COS7 hTOR1A mutant lysate, 635 nm fluorescence, higher = more signal;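 further: score pools 667 nm emission and signal to noise measuring lysate protein binding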
Sequence (O14656 whole entry, looked up): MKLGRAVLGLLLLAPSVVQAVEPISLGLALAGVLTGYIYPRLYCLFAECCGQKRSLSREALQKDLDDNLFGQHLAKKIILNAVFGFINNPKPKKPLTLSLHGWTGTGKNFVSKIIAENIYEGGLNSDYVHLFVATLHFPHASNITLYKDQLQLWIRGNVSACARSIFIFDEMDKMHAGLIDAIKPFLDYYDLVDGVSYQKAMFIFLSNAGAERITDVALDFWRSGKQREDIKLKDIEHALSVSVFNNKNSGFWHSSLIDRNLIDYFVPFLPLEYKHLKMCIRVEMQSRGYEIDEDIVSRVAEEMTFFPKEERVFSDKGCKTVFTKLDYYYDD
// return a plain number; no unit text

// composite z-score lookup, compound = `[N-]=[N+]=NCc1ccccc1[C@@H]1OC(c2ccc(OCCCO)cc2)=N[C@]1(Cc1ccccc1N=[N+]=[N-])C(=O)NCc1ccccc1` , result: 0.191

// composite z-score lookup, compound = `COCCOC(=O)N1C(=O)[C@@]2(c3cc(C#CCNC(N)=O)ccc31)[C@H](C(=O)N1CCc3cc(OC)c(OC)cc3C1)[C@H]1C(=O)O[C@H](c3ccccc3)[C@H](c3ccccc3)N1[C@@H]2c1ccc(OCCO)cc1` , result: 0.237

// composite z-score lookup, compound = `COC(=O)[C@@]1(Cc2ccccc2)[C@H]2c3cc(C(=O)N(C)C)n(Cc4cc(C)n(C)n4)c3C[C@H]2CN1C(=O)c1ccccc1` , result: 1.99

// composite z-score lookup, compound = `CCCNC(=O)[C@@]1(c2ccc([N+](=O)[O-])cc2)CC(=O)N(CC23CC4CC(CC(C4)C2)C3)[C@@H]1c1ccc(CO)cc1` , result: 0.319

// composite z-score lookup, compound = Cc1ccccc1C(O)C1C=CC2C(=O)N(C)C(=O)C2N1N1CCCCC1 (stereo unspecified) , result: 0.696

// composite z-score lookup, compound = `COC(=O)C(CC#Cc1ccc2c(c1)[C@]1(C(=O)N2)[C@H](C(=O)NC[C@H](O)c2ccccc2)[C@H]2C(=O)O[C@H](c3ccccc3)[C@H](c3ccccc3)N2[C@@H]1c1ccc(OCCO)cc1)C(=O)OC` , result: 1.09

====

target: Calmodulin-1 (Homo sapiens) (UniProt P0DP23); assay: CALM1 binders on microarrays, EGTA buffer, profiling panel, biochemical, small-molecule microarray, Cy5-labelled CALM1 (AID 1111); settings: Cy5-CALM1 binding fluorescence, higher = more signal;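 further: labelled calmodulin applied in Tris saline Tween buffer holding calcium plus EGTA and DTT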
Label yes when composite z-score is at or above 0.3; otherwise label no.

**Query** For this compound, is measured composite z-score 0.3 or higher? `O=c1oc(-c2ccccc2)nc2cc(Br)ccc12`
**Result** no

**Query** For this compound, is measured composite z-score 0.3 or higher? COc1ccc(NN2C(C(O)c3ccc(OC)c(OCc4ccccc4)c3)C=CC3C(=O)N(C4CCCCC4)C(=O)C32)cc1 (stereo unspecified)
**Result** yes

**Query** For this compound, is measured composite z-score 0.3 or higher? `COC(=O)[C@@]1(Cc2ccccc2N=[N+]=[N-])COC(c2ccc(OCCCO)cc2)=N1`
**Result** no

**Query** For this compound, is measured composite z-score 0.3 or higher? `Cc1ccc(S[C@]2(C(=O)NCC(C)C)CC(=O)N(Cc3ccccc3Cl)[C@@H]2c2ccc(CO)cc2)cc1`
**Result** no

**Query** For this compound, is measured composite z-score 0.3 or higher? `[N-]=[N+]=NCc1ccccc1[C@@H]1OC(c2ccc(OCCCO)cc2)=N[C@]1(Cc1ccccc1N=[N+]=[N-])C(=O)NCc1ccccc1`
**Result** yes

**Query** For this compound, is measured composite z-score 0.3 or higher? `CCOC(=O)C[C@H]1[C@H](OC(=O)Cc2ccc3c(c2)OCO3)[C@@H](NC(=O)c2ccc(-c3ccccc3)cc2)c2cc(OCCCO)ccc2N1C(=O)c1ccccc1`
**Result** yes

**Query** For this compound, is measured composite z-score 0.3 or higher? `C=C(COC)C(=O)CC[C@@H](OC(=O)c1cccnc1)c1ccc(CO)o1`
**Result** no

**Query** For this compound, is measured composite z-score 0.3 or higher? `CN(C)CCCCCCNC(=O)[C@H]1C[C@H]2C(=O)N[C@@H](CCCCN)C(=O)N2[C@H]1c1ccc(O)cc1`
**Result** yes

**Query** For this compound, is measured composite z-score 0.3 or higher? `CO[C@H]1O[C@H](CO)[C@@H](OC(=O)Nc2ccc(Oc3ccccc3)cc2)[C@H](OC(=O)Nc2ccccc2)[C@H]1OC(=O)Nc1ccccc1`
**Result** yes

**Query** For this compound, is measured composite z-score 0.3 or higher? `CCOC(=O)C[C@H]1[C@H](OC(=O)c2ccccc2-c2ccccc2)[C@@H](NC(=O)Cc2ccc(OC)cc2)c2cc(OCCCO)ccc2N1C(=O)c1ccccc1`
**Result** no

**Query** For this compound, is measured composite z-score 0.3 or higher? Cc1cc(C)cc(N2C(=O)CS(=O)(=O)C2c2cccc([N+](=O)[O-])c2)c1 (stereo unspecified)
**Result** yes

**Query** For this compound, is measured composite z-score 0.3 or higher? `C=CC[C@]1(C(=O)N2CCOCC2)N=C(c2ccc(OCCCO)cc2)O[C@H]1c1ccccc1`
**Result** yes

**Query** For this compound, is measured composite z-score 0.3 or higher? `NCCCCCNC(=O)[C@H]1C[C@H]2C(=O)NCC(=O)N2[C@H]1c1cccc(OCCO)c1`
**Result** yes

**Query** For this compound, is measured composite z-score 0.3 or higher? CCOC(=O)[C@H]1C[C@H]2O[C@@]23C[C@H]1C(=O)N1CCCC1[C@@H]3O[Si](C)(C)C(C)(C)C (stereo partly specified)
**Result** no

**Query** For this compound, is measured composite z-score 0.3 or higher? `COCCCNC(=O)[C@@]1(C)c2ccccc2C(=O)N(Cc2cc(C(F)(F)F)cc(C(F)(F)F)c2)[C@H]1c1ccc(CO)cc1`
**Result** no

**Query** For this compound, is measured composite z-score 0.3 or higher? `CC(=O)Nc1cc(Br)ccc1C(=O)O`
**Result** yes
